Tested on: T1, dT14-3-3_PKB/CHK1, unphosphorylated (Tobacco | )
T1 chain: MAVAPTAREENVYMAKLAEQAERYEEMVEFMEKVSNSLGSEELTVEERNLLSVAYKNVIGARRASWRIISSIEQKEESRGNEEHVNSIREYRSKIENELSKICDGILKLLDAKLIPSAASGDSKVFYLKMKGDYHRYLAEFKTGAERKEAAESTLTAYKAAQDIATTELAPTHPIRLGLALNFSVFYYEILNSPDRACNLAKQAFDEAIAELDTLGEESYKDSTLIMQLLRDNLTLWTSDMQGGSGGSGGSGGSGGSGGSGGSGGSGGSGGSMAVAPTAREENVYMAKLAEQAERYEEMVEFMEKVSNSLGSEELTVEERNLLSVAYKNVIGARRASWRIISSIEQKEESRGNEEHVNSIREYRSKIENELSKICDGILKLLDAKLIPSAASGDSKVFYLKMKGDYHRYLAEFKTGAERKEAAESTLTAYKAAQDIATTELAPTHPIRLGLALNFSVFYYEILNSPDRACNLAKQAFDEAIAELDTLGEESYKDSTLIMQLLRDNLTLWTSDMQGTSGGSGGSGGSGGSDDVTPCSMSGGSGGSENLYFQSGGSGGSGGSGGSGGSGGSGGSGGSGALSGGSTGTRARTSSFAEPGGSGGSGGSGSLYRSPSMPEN
Assay explanation: FP
Property: Kd (µM)
Give bare numbers, in µM.

Looking for the measured Kd of QGLLDALDLAS [mExoS peptide (C-terminal region of exoenzyme S)] , can you help? 6.62
